Consider the following compounds and their measured IC50 readings.
- Tgt: Protein skinhead-1 (Caenorhabditis elegans, UniProt P34707)
- Sequence (P34707 whole entry): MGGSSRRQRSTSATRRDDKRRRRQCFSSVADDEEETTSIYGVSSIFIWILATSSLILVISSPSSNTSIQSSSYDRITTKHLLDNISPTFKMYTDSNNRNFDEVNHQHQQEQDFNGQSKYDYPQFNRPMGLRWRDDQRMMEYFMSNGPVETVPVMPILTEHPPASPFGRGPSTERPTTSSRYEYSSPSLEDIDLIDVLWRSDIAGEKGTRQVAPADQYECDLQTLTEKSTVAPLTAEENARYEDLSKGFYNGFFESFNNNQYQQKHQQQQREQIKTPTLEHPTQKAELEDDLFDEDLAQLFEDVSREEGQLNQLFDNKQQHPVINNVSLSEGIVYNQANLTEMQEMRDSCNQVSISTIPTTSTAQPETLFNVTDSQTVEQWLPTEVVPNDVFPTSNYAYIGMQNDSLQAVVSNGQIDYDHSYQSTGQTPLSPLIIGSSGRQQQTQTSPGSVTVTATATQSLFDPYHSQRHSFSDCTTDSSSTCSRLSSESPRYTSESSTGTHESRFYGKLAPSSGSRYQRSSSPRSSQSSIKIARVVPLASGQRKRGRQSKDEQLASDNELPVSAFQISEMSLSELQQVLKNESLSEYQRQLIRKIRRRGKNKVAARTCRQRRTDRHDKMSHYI
- Assay type: functional
Active and inactive are the calls of the source.
Value Type: IC50

compound=FC(F)(F)c1cc(Cl)c2nc(-c3ccccc3)cn2c1 value_type=IC50 measurement="> 100 µM (inactive)"
compound=COc1ccc(-n2c(C)nc3cc(C(=O)NCc4ccco4)ccc32)cc1 value_type=IC50 measurement="> 100 µM (inactive)"
compound="COc1cccc(NC(=O)C(C)Oc2ccccc2)c1 (stereo not given)" value_type=IC50 measurement="> 100 µM (inactive)"
compound=Cc1c(C)n(C)c2ccc(C(=O)NCCCN(C)C3CCCCC3)cc12 value_type=IC50 measurement="> 100 µM (inactive)"
compound=Clc1ccc(-c2nnc(-c3ccccc3)o2)c(Cl)c1 value_type=IC50 measurement="51.6 µM (inactive)"
compound="CCN(CC)S(=O)(=O)c1ccc2c(c1)nc(SC(C)C(N)=O)n2-c1ccc(OC)cc1 (stereo not given)" value_type=IC50 measurement="> 100 µM (inactive)"
compound=O=C(NCC(=O)N1CCOCC1)c1ccc(Cl)c(Cl)c1 value_type=IC50 measurement="> 100 µM (inactive)"
compound=CCC(=O)N1CCN(c2nc3ccc(Br)cc3s2)CC1 value_type=IC50 measurement="58.6 µM (inactive)"
compound="O=C(CCc1ccccc1)NC1CCSC1=O (stereo not given)" value_type=IC50 measurement="> 100 µM (inactive)"
compound="COc1ccc(CNC(C)C2COc3ccccc3O2)c(OC)c1 (stereo not given)" value_type=IC50 measurement="> 100 µM (inactive)"
